A collection of compounds and their measured Inhibition %
biological target: Parkinson's disease protein 7 (PARK7/DJ1) (human, UniProt Q99497); experiment: primary screen, percent inhibition; read as competition with a fluorescent probe by fluorescence polarization; higher = more effect of the substance; conditions: 100 µM
Sequence (Q99497 whole entry, looked up): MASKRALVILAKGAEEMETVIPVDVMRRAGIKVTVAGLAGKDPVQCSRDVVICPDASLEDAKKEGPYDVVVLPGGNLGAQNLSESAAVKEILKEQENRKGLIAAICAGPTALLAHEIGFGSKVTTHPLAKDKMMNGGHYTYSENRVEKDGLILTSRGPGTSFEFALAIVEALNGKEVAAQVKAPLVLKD
Out of some 7,900 compounds screened, about 400 (5.1%) showed an effect of 50% or more. This excerpt belongs to a sample that is enriched for strong results.
Readout Kind: Inhibition % (%)

{"Compound": "CC1CCc2ccccc2N1C(=O)CCl (centres unmarked)", "Tested Target": "Parkinson's disease protein 7 (PARK7/DJ1) (human, UniProt Q99497)", "Value Reported": 100}
{"Compound": "CN(C)S(=O)(=O)c1ccc2c(c1)CCCN2C(=O)CCl", "Tested Target": "Parkinson's disease protein 7 (PARK7/DJ1) (human, UniProt Q99497)", "Value Reported": 8.14}
{"Compound": "O=C1CCCN1CCCl", "Tested Target": "Parkinson's disease protein 7 (PARK7/DJ1) (human, UniProt Q99497)", "Value Reported": 5.09}
{"Compound": "FC(F)(F)c1ccccc1OCC1CO1 (centres unmarked)", "Tested Target": "Parkinson's disease protein 7 (PARK7/DJ1) (human, UniProt Q99497)", "Value Reported": 11.7}
{"Compound": "CC(c1ccccc1)N(C)C(=O)CCl (centres unmarked)", "Tested Target": "Parkinson's disease protein 7 (PARK7/DJ1) (human, UniProt Q99497)", "Value Reported": 98.5}
{"Compound": "Cc1nn(S(=O)(=O)c2ccccc2)c(C)c1C", "Tested Target": "Parkinson's disease protein 7 (PARK7/DJ1) (human, UniProt Q99497)", "Value Reported": 6.77}
{"Compound": "C=CC(=O)NCCc1ccc(F)cn1", "Tested Target": "Parkinson's disease protein 7 (PARK7/DJ1) (human, UniProt Q99497)", "Value Reported": -26.8}
{"Compound": "O=C(CCl)N1CCc2cc([N+](=O)[O-])ccc21", "Tested Target": "Parkinson's disease protein 7 (PARK7/DJ1) (human, UniProt Q99497)", "Value Reported": 5.06}
{"Compound": "O=C(CCl)N1CCc2ccccc21", "Tested Target": "Parkinson's disease protein 7 (PARK7/DJ1) (human, UniProt Q99497)", "Value Reported": -0.66}
{"Compound": "NS(=O)(=O)c1ccc2c(c1)CCN2C(=O)CCl", "Tested Target": "Parkinson's disease protein 7 (PARK7/DJ1) (human, UniProt Q99497)", "Value Reported": 83.1}
{"Compound": "O=C(CCl)N1CCCc2ccccc21", "Tested Target": "Parkinson's disease protein 7 (PARK7/DJ1) (human, UniProt Q99497)", "Value Reported": 69.2}
{"Compound": "CC(c1ccccc1)N(C)C(=O)Cn1cnc(C#N)n1 (centres unmarked)", "Tested Target": "Parkinson's disease protein 7 (PARK7/DJ1) (human, UniProt Q99497)", "Value Reported": 7.46}
{"Compound": "O=C1CCC(=O)N1CC(=O)N1CCCc2ccccc21", "Tested Target": "Parkinson's disease protein 7 (PARK7/DJ1) (human, UniProt Q99497)", "Value Reported": 10.8}
{"Compound": "O=C(CCl)N1CCCC1=O", "Tested Target": "Parkinson's disease protein 7 (PARK7/DJ1) (human, UniProt Q99497)", "Value Reported": 79.2}
